# target-system: Tyrosine--tRNA ligase (Staphylococcus aureus)
# test-name: Inhibitory activity against Staphylococcus aureus tyrosyl tRNA synthetase (YRS) using aminoacylation assay
parameter-measured: IC50 (nM)
Give your result in nM as a bare value.

// fetch Tyrosine--tRNA ligase (Staphylococcus aureus) IC50 for N[C@@H](Cc1ccc(O)cc1)C(=O)N[C@H](C(=O)O)[C@H]1[C@H](O)[C@@H](O)[C@@H](O)CN1O
1.2

All values here come from ChEMBL document CHEMBL1134224.
